system: Escherichia coli; test: Antimicrobial susceptibility testing (MIC), BD Phoenix Automated Microbiology System; format: cell-based; conditions: Escherichia coli, read-out: minimal inhibiting concentration, Escherichia coli isolate 4
The following molecules are shown together with reported MIC values.

// solved cases for MIC follow
[
  {
    "Molecule": "O=C1CN(/N=C/c2ccc([N+](=O)[O-])o2)C(=O)N1 [Nf., Nitrofurantoin]",
    "Result": "≤ 16 µg/mL"
  },
  {
    "Molecule": "C[C@@H](O)[C@H]1C(=O)N2C(C(=O)O)=C(S[C@@H]3CN[C@H](C(=O)N(C)C)C3)[C@H](C)[C@H]12 [Mero., Meropenem]",
    "Result": "≤ 1 µg/mL"
  },
  {
    "Molecule": "NC[C@H]1O[C@H](O[C@H]2[C@H](O)[C@@H](O[C@H]3O[C@H](CO)[C@@H](O)[C@H](N)[C@H]3O)[C@H](N)C[C@@H]2N)[C@H](N)C[C@@H]1O [Tob., Tobramycin]",
    "Result": "≤ 2 µg/mL"
  },
  {
    "Molecule": "C[C@H]1COc2c(N3CCN(C)CC3)c(F)cc3c(=O)c(C(=O)O)cn1c23 [Lev., Levofloxacin]",
    "Result": "> 4 µg/mL"
  },
  {
    "Molecule": "CO/N=C(\\C(=O)N[C@@H]1C(=O)N2C(C(=O)O)=C(CSc3nc(=O)c(=O)[nH]n3C)CS[C@H]12)c1csc(N)n1 [Co., Ceftriaxone]",
    "Result": "> 32 µg/mL"
  }
]

Here is another molecule to look at.
Sample CO/N=C(\C(=O)N[C@@H]1C(=O)N2C(C(=O)[O-])=C(C[N+]3(C)CCCC3)CS[C@H]12)c1csc(N)n1 [Cefe., Cefepime] — what was its MIC? > 16 µg/mL
